Literature survey of IC50 (system: Cytochrome P450 3A4 (Homo sapiens, UniProt P08684)).
Sequence (P08684 whole entry): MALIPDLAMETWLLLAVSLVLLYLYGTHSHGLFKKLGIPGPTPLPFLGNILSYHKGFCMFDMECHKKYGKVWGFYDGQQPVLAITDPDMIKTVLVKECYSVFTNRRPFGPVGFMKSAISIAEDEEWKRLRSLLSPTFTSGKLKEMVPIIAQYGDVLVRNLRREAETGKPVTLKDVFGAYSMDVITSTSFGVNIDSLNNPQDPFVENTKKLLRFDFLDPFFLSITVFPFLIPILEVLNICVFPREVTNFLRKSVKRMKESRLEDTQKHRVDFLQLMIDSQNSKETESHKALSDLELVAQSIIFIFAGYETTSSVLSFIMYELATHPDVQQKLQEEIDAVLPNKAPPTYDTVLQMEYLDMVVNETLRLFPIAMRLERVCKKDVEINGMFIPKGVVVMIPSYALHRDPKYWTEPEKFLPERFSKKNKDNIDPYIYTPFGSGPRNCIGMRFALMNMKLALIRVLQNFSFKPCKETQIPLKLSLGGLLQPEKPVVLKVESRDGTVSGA

// solved cases for IC50 follow
compound=Cc1cc(-c2cnn3c(NCC4CCOCC4)nc(Oc4cccc(F)c4F)nc23)ccc1C(=O)NC1CC1 result="> 20 µM"
compound=C[C@H](Nc1ccc(-c2ccnn2C)nc1)C(=O)Nc1ccc(-c2cccnc2)nc1 result="> 20 µM"

Please report the recorded IC50 for NC(=O)CCC1(c2ccccc2)CCCN(C(=O)Nc2ccc(Cl)cc2)C1 (stereo not drawn) .
> 10 µM
